# System: Escherichia coli TOP10;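 further: peptides expressed intracellularly from a pBAD plasmid library in pooled LB shake-flask culture, induced with 0.3% L-arabinose, DNA abundance read by NGS, three biological replicates, DESeq2 with apeglm shrinkage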
# measurement_protocol: shrunken log2 fold change of peptide-encoding DNA abundance (4.5 h post-induction vs induction); higher = less antimicrobial activity (less host growth inhibition)
# applied_conditions: time post-induction: 4.5 h; library: site-saturation at positions 5, 18, 19, 20
Assign a class from recorded shrunken log2 fold change; defined classes: small value = under -0.08, mid value = from -0.08 up to 0.09, large value = 0.09 and over

Consider "RRIRGRPPRLPRPRPRPVAYPRP" . To which shrunken log2 fold change class does it belong?
mid value

Consider "RRIRSRPPRLPRPRPRPYINPRP" . To which shrunken log2 fold change class does it belong?
small value

Consider "RRIRWRPPRLPRPRPRPDRGPRP" . To which shrunken log2 fold change class does it belong?
small value

Consider "RRIRSRPPRLPRPRPRPASWPRP" . To which shrunken log2 fold change class does it belong?
large value

Consider "RRIRARPPRLPRPRPRPSNAPRP" . To which shrunken log2 fold change class does it belong?
large value

Consider "RRIRCRPPRLPRPRPRPKVAPRP" . To which shrunken log2 fold change class does it belong?
small value

Consider "RRIRGRPPRLPRPRPRPWLWPRP" . To which shrunken log2 fold change class does it belong?
mid value

Consider "RRIRWRPPRLPRPRPRPCPEPRP" . To which shrunken log2 fold change class does it belong?
mid value

The reported measurements were obtained from the supplement of paper PMC9112550.
